Assay: AGP1-GFP expression modulators, hit retest, confirmation, cell-based, flow cytometry, S. cerevisiae, cherry picks (AID 2273);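 further: median GFP channel fluorescence over the whole cell population gate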
Conditions: S. cerevisiae AGP1-GFP strain, 3 h, at 10 µM
MEASUREMENT_LABEL: GFP response, % of DMSO (%)

- COMPOUND: "COc1cc(NC(=O)C(C)C)ccc1NC(=O)c1cc2ccccc2o1"
  RECORDED_RESULT: 97.8
- COMPOUND: "COC(=O)COc1ccc(S(=O)(=O)N2CCc3ccccc3C2)cc1"
  RECORDED_RESULT: 99.4
- COMPOUND: "O=C(c1ccc(Cl)cc1)N1CCN(c2cccc3[nH]ccc23)CC1"
  RECORDED_RESULT: 91.9
- COMPOUND: "C=CCN1C(=O)C2(C(C#N)=C(N)Oc3n[nH]c(CCC)c32)c2ccccc21 (stereo unspecified)"
  RECORDED_RESULT: 102
- COMPOUND: "CSc1ccc(/C=C/C(=O)c2ccc(NC(=O)C(C)C)cc2)cc1"
  RECORDED_RESULT: 93.5
- COMPOUND: "COC(=O)CNc1c(-c2ccccn2)nc2ccc(Br)cn12"
  RECORDED_RESULT: 98.7
- COMPOUND: "CS(=O)(=O)Nc1ccc(C2=NN(S(C)(=O)=O)C(c3ccc4c(c3)OCO4)C2)cc1 (stereo unspecified)"
  RECORDED_RESULT: 102
- COMPOUND: "NC1=NC(=O)C(CC(=O)c2ccc(Cl)cc2)S1 (stereo unspecified)"
  RECORDED_RESULT: 96.7
- COMPOUND: "CCn1c(=O)c(C(=O)Nc2ccccc2C)c(O)c2ccccc21"
  RECORDED_RESULT: 96
- COMPOUND: "Cc1cccc(Cn2cc(/C=C/[N+](=O)[O-])c3ccccc32)c1"
  RECORDED_RESULT: 101
- COMPOUND: "CCCCOc1c(Br)cc(/C=C2\\N=C(C)OC2=O)cc1OCC"
  RECORDED_RESULT: 101

###

binding (% of control) overview
Tested on: anti-desmoglein-3 scFv antibody binding to human DSG3
Assay: inhibitors of anti-DSG3 scFv binding to DSG3, pilot screen, biochemical, validation compound set, bead-based, flow cytometry (AID 588368);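 further: signal is the median channel fluorescence of bead-bound GFP antibody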
Conditions: Protein G beads, DSG3-Fc, scFv-GFP binding, at 10 µM, active compounds read low
MEASUREMENT_LABEL: binding (% of control) (%)

- COMPOUND: "O=Cc1ccc(N2CCCCC2)cc1"
  RECORDED_RESULT: 101
- COMPOUND: "CO/N=C(\\C(=O)N[C@@H]1C(=O)N2C(C(=O)O)=C(COC(C)=O)CS[C@H]12)c1csc(N)n1 (stereo in doubt)"
  RECORDED_RESULT: 97.5
- COMPOUND: "CCOc1cc2oc(=O)c3c(c2cc1Cl)CCC3"
  RECORDED_RESULT: 103
- COMPOUND: "CCNC(=S)Nc1ccc(OC(F)(F)F)cc1"
  RECORDED_RESULT: 101
- COMPOUND: "COc1cc2c(cc1OC)C(c1cc(OC)c(OC)c(OC)c1)NCC2 (centres undefined)"
  RECORDED_RESULT: 96
- COMPOUND: "Cc1c(OCC(=O)NC(Cc2c[nH]c3ccc(O)cc23)C(=O)O)ccc2c3c(c(=O)oc12)CCC3 (centres undefined)"
  RECORDED_RESULT: 101
- COMPOUND: "COc1cc(=O)n(C)c2ccccc12"
  RECORDED_RESULT: 96.9
- COMPOUND: "C=CCc1ccc(OCC(O)COc2ccc(CC=C)cc2OC)c(OC)c1"
  RECORDED_RESULT: 104
- COMPOUND: "O=C(CCCN1CCC(O)(c2ccc(Cl)cc2)CC1)c1ccc(F)cc1"
  RECORDED_RESULT: 105
- COMPOUND: "NCCCC(=O)O"
  RECORDED_RESULT: 99.8
- COMPOUND: "CN1[C@@H](CC(=O)c2ccccc2)CCC[C@H]1C[C@H](O)c1ccccc1"
  RECORDED_RESULT: 103
- COMPOUND: "Cc1cc(OC(C(=O)O)c2ccccc2)c2c(C)c(Cc3ccccc3)c(=O)oc2c1 (centres undefined)"
  RECORDED_RESULT: 95.4
- COMPOUND: "COc1ccc(OCC(=O)N2c3ccc(C)cc3C3CN(C)CCC32)cc1 (centres undefined)"
  RECORDED_RESULT: 106
- COMPOUND: "CC1(C)CC(=O)C(C(=O)CCCCC(=O)C2C(=O)CC(C)(C)CC2=O)C(=O)C1"
  RECORDED_RESULT: 114
- COMPOUND: "O=P(O)(O)CP(=O)(O)O"
  RECORDED_RESULT: 101
- COMPOUND: "O=c1[nH]cnc2c1ncn2[C@@H]1O[C@H](CO)[C@@H](O)[C@H]1O"
  RECORDED_RESULT: 106
- COMPOUND: "CC[C@H](CO)NCCN[C@H](CC)CO"
  RECORDED_RESULT: 112
- COMPOUND: "CC(=O)N1CC23C=CC(CC2CC12CCCCCC2)O3 (centres undefined)"
  RECORDED_RESULT: 104
- COMPOUND: "CCOc1ccccc1Oc1coc2cc(OCC(=O)O)ccc2c1=O"
  RECORDED_RESULT: 106
- COMPOUND: "O=C(O)c1cccnc1"
  RECORDED_RESULT: 101
- COMPOUND: "Cn1cc(CN(CCO)Cc2cccs2)c(-c2cccc(Cl)c2)n1"
  RECORDED_RESULT: 99.3
- COMPOUND: "CNS(=O)(=O)c1ccc(C)cc1"
  RECORDED_RESULT: 93.9
- COMPOUND: "COc1ccc(CCN(C)CCCC(C#N)(c2ccc(OC)c(OC)c2)C(C)C)cc1OC (centres undefined)"
  RECORDED_RESULT: 102
- COMPOUND: "NC(=O)c1c(-c2ccccc2)oc2ccc(O)cc12"
  RECORDED_RESULT: 102
